target: Neuronal acetylcholine receptor subunit alpha-7 (Homo sapiens, UniProt P36544); assay: […] to human alpha7 nAChR expressed in xenopus oocytes preincubated for 10 mins followed by acetylcholine addition by patch clamp electrophysiological assay relative to acetylcholine; format: cell-based; set-up: concentration or dose not given beside the values
Sequence (P36544 whole entry): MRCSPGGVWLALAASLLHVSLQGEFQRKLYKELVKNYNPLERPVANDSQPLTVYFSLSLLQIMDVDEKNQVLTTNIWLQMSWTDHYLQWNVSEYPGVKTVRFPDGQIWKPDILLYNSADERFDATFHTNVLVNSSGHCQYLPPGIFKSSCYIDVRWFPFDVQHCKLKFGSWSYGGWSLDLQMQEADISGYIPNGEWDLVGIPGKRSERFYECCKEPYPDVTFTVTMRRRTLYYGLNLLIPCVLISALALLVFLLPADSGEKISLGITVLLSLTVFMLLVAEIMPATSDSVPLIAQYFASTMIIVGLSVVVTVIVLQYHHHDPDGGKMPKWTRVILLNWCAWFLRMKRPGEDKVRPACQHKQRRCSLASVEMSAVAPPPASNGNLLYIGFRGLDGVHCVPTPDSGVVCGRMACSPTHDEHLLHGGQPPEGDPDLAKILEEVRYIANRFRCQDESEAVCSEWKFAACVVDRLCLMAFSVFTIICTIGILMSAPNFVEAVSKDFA

| Smiles Code | Activity |
| --- | --- |
| O=C(N[C@H]1CN2CCC1CC2)c1cc(C(=O)c2ccccc2Br)n2ccccc12 | < 1% |
| O=C(N[C@H]1CN2CCC1CC2)c1cc2ccccn2c1 | 57.1% |
| O=C(N[C@H]1CN2CCC1CC2)c1cc(C(=O)c2ccc(Cl)cc2)n2ccccc12 | < 1% |
| O=C(N[C@H]1CN2CCC1CC2)c1cc2ccc(Cl)cn2c1 | < 1% |
| O=C(N[C@H]1CN2CCC1CC2)c1cc2cccc(-c3ccccc3)n2c1 | 59.8% |
| CC(C)(C)c1ccc(-c2ccc3cc(C(=O)N[C@H]4CN5CCC4CC5)cn3c2)cc1 | < 1% |
| CCOC(=O)c1cc(C(=O)c2ccccc2)n2cccc(C(=O)N[C@H]3CN4CCC3CC4)c12 | < 1% |
| CN(C)c1cccc(-c2cccc3cc(C(=O)N[C@H]4CN5CCC4CC5)cn23)c1 | < 1% |
| CC(C)(C)c1ccc(-c2cccc3cc(C(=O)N[C@H]4CN5CCC4CC5)cn23)cc1 | 23.9% |
| O=C(N[C@H]1CN2CCC1CC2)c1cnc2ccccn12 | < 1% |

====

The following compounds are shown together with reported pEC50 values.
molecular target: Neuronal acetylcholine receptor subunit alpha-7 (Homo sapiens, UniProt P36544); assay: Agonist activity at human alpha7 nAChR expressed in xenopus oocytes preincubated for 10 mins followed by acetylcholine addition by patch clamp electrophysiological assay
pEC50: −log10 of the molar value.

| Smiles Code | pEC50 |
| --- | --- |
| CCOC(=O)c1cc(C(=O)c2ccccc2)n2cc(C(=O)N[C@H]3CN4CCC3CC4)ccc12 | < 4.70 |
| O=C(N[C@H]1CN2CCC1CC2)c1cc2ccc(Cl)cn2c1 | < 4.70 |
| O=C(N[C@H]1CN2CCC1CC2)c1cc2ccc(-c3cccs3)cn2c1 | < 4.70 |
| O=C(N[C@H]1CN2CCC1CC2)c1cc(C(=O)c2ccccc2)n2ccccc12 | < 4.70 |
| CCOC(=O)c1cc(C(=O)c2ccccc2)n2ccc(C(=O)N[C@H]3CN4CCC3CC4)cc12 | < 4.70 |
| O=C(N[C@H]1CN2CCC1CC2)c1cc2cccc(-c3ccsc3)n2c1 | 5.45 |
| O=C(N[C@H]1CN2CCC1CC2)c1cc(C(=O)c2ccccc2Br)n2ccccc12 | < 4.70 |
| O=C(N[C@H]1CN2CCC1CC2)c1cc(C(=O)c2ccccc2F)n2ccccc12 | < 4.70 |
| Cc1nc2c(Br)cccn2c1C(=O)N[C@H]1CN2CCC1CC2 | < 4.70 |
| O=C(N[C@H]1CN2CCC1CC2)c1cc2cccc(Cl)c2s1 | 6.47 |

====

molecular target: Neuronal acetylcholine receptor subunit alpha-7 (Homo sapiens, UniProt P36544); experiment: Displacement of [3H]-MLA from human alpha7 nAChR expressed in xenopus oocytes in presence of alpha7 nAChR positive allosteric modulator PNU-120596; assay type: cell-based

| Smiles Code | Ki / nM |
| --- | --- |
| O=C(N[C@H]1CN2CCC1CC2)c1cc2cccc(Br)n2c1 | 93.6 |
